Molecular target: JAK3 (Homo sapiens (Human), UniProt P52333)
Sequence (P52333 822-1111): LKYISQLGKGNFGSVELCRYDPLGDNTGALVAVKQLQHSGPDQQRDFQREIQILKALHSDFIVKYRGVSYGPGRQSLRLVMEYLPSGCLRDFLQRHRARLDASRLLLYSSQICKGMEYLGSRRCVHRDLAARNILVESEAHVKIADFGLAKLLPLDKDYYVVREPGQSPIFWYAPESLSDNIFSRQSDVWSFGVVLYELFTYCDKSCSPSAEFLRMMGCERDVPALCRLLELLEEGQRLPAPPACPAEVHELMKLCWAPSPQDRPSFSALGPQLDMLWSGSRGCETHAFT
Assay: JAK Caliper Enzyme Assay at 1 mM ATP, JAK3
Format: biochemical
Quantity Measured: IC50

# annotated cases, reported IC50 shown
CO[C@H]1C[C@](CC#N)(n2ncc(-c3cc(-c4cc[nH]n4)cc4ncccc34)n2)C1 [Example 305] | > 10 µM
CS(=O)(=O)N1CC(CC#N)(n2ccc(-c3nc(-c4cnn5ccccc45)cc4ncccc34)n2)C1 [Example 161] | > 10 µM
N#CCC1(n2ccc(-c3nc(-c4cnn(C5COC5)c4)cc4ncccc34)n2)CN(CC(F)(F)F)C1 [Example 119] | 8.38 µM

Consider now this further molecule.
Exercise: Bench note: what IC50 did Cn1ncc(-c2cc3ncccc3c(-c3ccn(C4(CC#N)CN(S(C)(=O)=O)C4)n3)n2)c1N [Example 137] show?
Solution: > 10 µM
